ASSAY NOTES: yeast display, Sf9 membrane polyspecificity reagent, FACS + sequencing; frameworks hold sequencing errors
QUANTITY NAME: polyreactivity (PSR sort gate)

Known polyreactivity (PSR sort gate) results, listed for orientation:
[
  {
    "PRIMARY SEQUENCE": "QVQLVESGGGLVQAGGSLRLSCAASGYIFERNAMGWYRQAPGKERELVAAITDDGDDTYYADSVKGRFTISRDNAKNTVFLLMNSLKPEDTAVYYCAKDLYYGDYYYWGQGTQVTVSS",
    "polyreactivity (PSR sort gate)": "low polyreactivity"
  },
  {
    "PRIMARY SEQUENCE": "QVQLVESGGGLVQAGGSLRLSCAASGSIYQYNAMGWYRQAPGKERELVAAISSRGGITYYADSVKGRFTISRDNAKNTVYLQMNSLKPEDTAVYYCAAEGYYSEVRWYEYWGQGTQVTVSS",
    "polyreactivity (PSR sort gate)": "high polyreactivity"
  },
  {
    "PRIMARY SEQUENCE": "QVQLVESGGGLVQAGGSLRLSCAASGFTFEWYTMRCYRQAPGKERELVADISGDGSTYYADSVKGRFTISRDNAKNTVYLQMNSLKPEDTAVYYCAARTRRYHRPGLSPGNYWGQGTQVTVSS",
    "polyreactivity (PSR sort gate)": "high polyreactivity"
  },
  {
    "PRIMARY SEQUENCE": "QVQLVESGGGLVQAGGSLRLSCAASGSIFYGYDMGWYRQAPGKERELVATISWSSGSSTYYADSVKGRFTISRDNAKNTVYLQMNSLKPEYTAVYYCAVDFAIGYRYLGRVDYWGQGTQVTVSS",
    "polyreactivity (PSR sort gate)": "low polyreactivity"
  },
  {
    "PRIMARY SEQUENCE": "QVQLVESGGGLVQAGGSLRLSCAASGRTFYWYGMGWYRQAPGKERELVATISRGSRTYYADSVKGRFTISRDNAKNTVYLQMNSLKPEDTAVYYCNADTWPGEYNGYFSGAYDYWGQGTQVTVSS",
    "polyreactivity (PSR sort gate)": "high polyreactivity"
  }
]

// input: 4 sequences below; output: polyreactivity (PSR sort gate) for each
1. QVQLVESGGGLVQAGGSLRLSCGASGRTIDYNGMGWYRQEPGKERELVSVISSSGGSTFYADSVKGRFTISRDNAKNTVYLQMNSLEPEDTAVYYCAALHVGHNYYNSGFYYWGQGTQVTVSS
2. QVQLVESGGGLFQAGGSLRLSCAASGITFSKNSMGWYRQAPGQERELVAAITRRSVSKYYADSVKGRFTISRDNENNNLYLQMNSLKPEYTAVYYCAASYSSKHGYWGQGTQVTVSS
3. QVQLVESGGGLVQAGGSLRLSCAASGSISYINAMGWYRQAPGKERELVARIRSGDRTNYADSVKGRFTISRDNAKNTVYLQMNSLKPEDTAVYYCAARGLRTGGYWGQGTQVTVSS
4. QVQLLESGGGLVQAGGRLRLSCADSGGIIAYNAIGWYRQAPAKERELVAAISSSGGRTYYADSVKGRFTISRDNAKITVYLQMNSLKPEDTAVYYFAAVRSGIEYGYWGQGTQVTVSS

Response line:
["low polyreactivity", "high polyreactivity", "high polyreactivity", "high polyreactivity"]

// input: 3 sequences below; output: polyreactivity (PSR sort gate) for each
1. QVQLVESGVGLYQAGGSLRLSCAASGSIFEENAMVWYRQAPGKEMELVAAITIGGRTNYADSVKGRFTISRDNAKNTVYLEMNSLKPEDTAVYYCASDLSSIKYWLFWTRYYYWGQGTQVNVSS
2. QVQLVESGGGLVQAGGSLRLSCASSGRIFWTYAMGWYRQAPGKERELVAAITSGGSTYYADSVKGRFTISRDKAKNTVYLQMNSLKPEDTAVLYCAATSYYYNFLEHDYWGQGTQVTVSS
3. QVQLVESGGGLVQAGGSLRLSCAASGRIFAGYAMGWYRQAPGKERELVASIRYSGGSTYADSVKGRFPISRDNAKNTVYLQMNSLKAEDTAVYYCAADIRQFYVGWGSTLWYGHDYWGQGTQVTVSS

Response line:
["low polyreactivity", "high polyreactivity", "low polyreactivity"]

// input: 7 sequences below; output: polyreactivity (PSR sort gate) for each
1. QVQLVESGGGLVQAGGSLRLRCAASGRTFYYNVMGWYRQAPGKERELVATITSGASTNYADSVKGRFTISRDNAKNTVYLQMNSLKPEDTAVYYCNTEYYPRWYGPYSYYDFDSWGQGTEVTVSS
2. QVQLVESGGGLVQAVGSLRLSCAASGGIFRVYAMGWYREAPGKEREMVAAIRWTGGSTYYADSVKGRFKISRDNAKNTVYLQMKRLKPEDTAVYYWAAGRYYSDGSRTIYDYWGQGTQVTVSS
3. QVQLVESGGGLVQAGGSLRLSCAASGSTLRRYAMGWYRQAPGKERELVAAITRGSSTTYADSVKGRFTISRDNAKNTVYLQMNSLKPEDTAVYYCNTYFSRNFDYWGQGTQVTVSS
4. QVQLVESGGGLVQAGGSLRLSCAASGSTFYPYGMGWYRQAPGNERELVAAITDSGGSTYYADSVKGRFTISRDNAKNTVYLQMNSLKPEDTAVYYCAKTYWYPWRASLWHEYDYWGQGTQVTVSS
5. QVQLVESGGGLVQAGGRLRLSCAASGRTFYVYAMGWYRQAPGKERELVAAISWTGGSTYYADSVKGRFTISRDHAKNTVYLQMNSLKPEDTAVYDCAVDVYRRDYVAYEYWGQGTQVTVSS
6. QVQLVESGGGLVQAGGSLRLSCAASGYTFYRNAMGWYRQAPGKERELVAAIRDDGSTYYADSVKGRFTISRDNAKNTVYLQMNSLKPEDTAVYYCAAAIPRQYWFGISHRRYYYWGQGTQVTVSS
7. QVQLVESVGGLVQAGGSLRLSCAASGRIFRYYAMGWYRQAPGKERELVAAISISGGRTYYADSVKGRFSISRDNAKNTVYLQMNSLKPEDTAVYYCNADPYWYDRDKKYDYWGQGTQVTVSS

Response line:
1: low polyreactivity; 2: low polyreactivity; 3: high polyreactivity; 4: low polyreactivity; 5: high polyreactivity; 6: low polyreactivity; 7: high polyreactivity

// input: 2 sequences below; output: polyreactivity (PSR sort gate) for each
1. QVQLVESGGGLVQAGGSLRLSCAASGRTFPRYTMGWYRQAPGKERELVAASATGGSTYYADSVKGRFTISRDNAKNTVYLQMNSLKPEDTAVYYCAARPYSNRYVLGVYYWGQGTQVTVSS
2. QVQLVESGGGLVQAGGSLRLSCAPSGITFLHYAMGWYRQAPGKERELVAAITRGGITYYADSVKGRFTISRDNAKNSVYLLMNSLKPEDTAVYYCNALGFGSNYDYWGQGTQVTVSS

Response line:
high polyreactivity
high polyreactivity
